# Assay method text: Plasma stability
# Format: in vitro ADME, SD rat
# Run conditions: SD, rat, plasma
Peptide text beside a SMILES is read from it.

>  <Molecule>
CC(C)[C@@H](NC(=O)[C@H](N)Cc1ccc(O)cc1)C(=O)N[C@H](CC(=O)O)C(=O)N[C@H](CCCCN)C(=O)N[C@H](CCCNC(=N)N)C(=O)O [FC-12738, (D-Tyr)-(D-Val)-(D-Asp)-(D-Lys)-(D-Arg)] (HELM PEPTIDE1{[dY].[dV].[dD].[dK].[dR]}$$$$V2.0)

>  <remaining at 2 h, 2 μM [%]>
104

$$$$

---

# Assay method text: Tissue distribution in SD rats after single subcutaneous injection
# Type: in vivo, SD rat
# Run conditions: male, SD, rat, heart, sc, 10 mg/kg
Peptide text beside a SMILES is read from it.

>  <Molecule>
CC(C)[C@@H](NC(=O)[C@H](N)Cc1ccc(O)cc1)C(=O)N[C@H](CC(=O)O)C(=O)N[C@H](CCCCN)C(=O)N[C@H](CCCNC(=N)N)C(=O)O [FC-12738, (D-Tyr)-(D-Val)-(D-Asp)-(D-Lys)-(D-Arg)] (HELM PEPTIDE1{[dY].[dV].[dD].[dK].[dR]}$$$$V2.0)

>  <tissue level at time at 2 h / ng/g>
365

$$$$

---

# Assay method text: Tissue distribution in SD rats after single subcutaneous injection
# Assay type: in vivo, SD rat
# Run conditions: male, SD, rat, small intestine, sc, 10 mg/kg
Peptide text beside a SMILES is read from it.

>  <Compound>
CC(C)[C@@H](NC(=O)[C@H](N)Cc1ccc(O)cc1)C(=O)N[C@H](CC(=O)O)C(=O)N[C@H](CCCCN)C(=O)N[C@H](CCCNC(=N)N)C(=O)O [FC-12738, (D-Tyr)-(D-Val)-(D-Asp)-(D-Lys)-(D-Arg)] (HELM PEPTIDE1{[dY].[dV].[dD].[dK].[dR]}$$$$V2.0)

>  <Unit symbol>
ng/g

>  <tissue level at time at 0.5 h>
2060

$$$$

---

# Assay method text: Bidirectional permeability and efflux in Caco-2 cells
# Assay type: in vitro ADME
# Run conditions: human, Caco-2
Peptide text beside a SMILES is read from it.

>  <Compound>
CC(C)[C@@H](NC(=O)[C@H](N)Cc1ccc(O)cc1)C(=O)N[C@H](CC(=O)O)C(=O)N[C@H](CCCCN)C(=O)N[C@H](CCCNC(=N)N)C(=O)O [FC-12738, (D-Tyr)-(D-Val)-(D-Asp)-(D-Lys)-(D-Arg)] (HELM PEPTIDE1{[dY].[dV].[dD].[dK].[dR]}$$$$V2.0)

>  <efflux ratio at 120 min, 10 μM>
0.88

$$$$

---

# Assay method text: Excretion study in SD rats following single subcutaneous administration
# Format: in vivo, SD rat
# Run conditions: male, Sprague-Dawley, rat, bile, sc, 10 mg/kg
Peptide text beside a SMILES is read from it.
Readout label: dose excreted at 72 h (%)

>  <Compound>
CC(C)[C@@H](NC(=O)[C@H](N)Cc1ccc(O)cc1)C(=O)N[C@H](CC(=O)O)C(=O)N[C@H](CCCCN)C(=O)N[C@H](CCCNC(=N)N)C(=O)O [FC-12738, (D-Tyr)-(D-Val)-(D-Asp)-(D-Lys)-(D-Arg)] (HELM PEPTIDE1{[dY].[dV].[dD].[dK].[dR]}$$$$V2.0)

>  <Observed>
0.336

$$$$
